# Test Target: T1, Recombinant hFc fusion protein control (NC-Fc)
# T1 construct: negative control antigen of the screens; also called NC-hFc
# Test Summary: ELISA, hybridoma supernatant
Measured Property: ELISA (OD450 nm) (OD450)
Report the figure in OD450 without appending any unit label.

Entry hybridoma antibody 113B3F12 (mAb008) (antibody, IgG2b, V domains shown, murine hybridoma antibody, IgG2b,κ) VH: EVQLQQSGPVLVKPGASVKMSCKASGYTFTDYYMNWVKQSHGKSLEWIGVINPYNGGTDYNQKFKGKATLTVDKSSSTAYMELNSLTSEDSAVYYCARRRESYGTSYQGAYFDSWGQGTTLTVSS VL: DIQMTQTTSSLSASLGDRVTISCRASQDISNYLNWYQQKPDGTVKLLIYYTSRLHSGVPSRFSGSGSGTDYSLSISDLEQEDIATYFCQQVITLPWTFGGGTKLEIK needs its ELISA (OD450 nm) filled in; supply it. 0.14
